The reported numbers originate from PubChem BioAssay AID1159580.

EXPERIMENT: chemical genetic growth profiling, strain panel (AID 1159580);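 also: tested at 20 µM; growth read once vehicle control cultures reached saturation at 30 °C; 1 = growth at the plate median or of vehicle wells; lower values mean less growth of the strain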
EXPERIMENTAL_CONDITIONS: S. cerevisiae deletion strains, growth OD, locus YKL160W, strain elf1
The whole screen tested about 5,500 compounds, of which about 2,000 (36%) were called active. Roughly 18% stayed inconclusive and do not appear here. Rule as the data show it: active = normalized growth mostly below about 0.91 (no sharp cut-off); inconclusive = no clear call, values can overlap the other calls; inactive = mostly above about 0.92. The list shows a part of the results.
Outcome codes: active, inactive

# COMPOUND, CLASSIFICATION
data = [
    ("NC(=O)c1cnccn1", "inactive"),
    ("COc1ccc(C[C@H](N)C(=O)N[C@@H]2[C@@H](CO)OC(n3cnc4c(N(C)C)ncnc43)[C@@H]2O)cc1 (stereo not given in full)", "inactive"),
    ("COc1ccc(C=CC(=O)c2ccc(O)cc2O)cc1OC", "active"),
    ("C[C@@H]1C[C@@H]([C@H](O)CC2CC(=O)NC(=O)C2)C(=O)[C@@H](C)C1", "active"),
    ("COc1ccc(/C=C/C(=O)c2ccc(O)cc2O)cc1", "active"),
]

* * *

EXPERIMENT: chemical genetic growth profiling, strain panel (AID 1159580);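 also: tested at 20 µM; growth read once vehicle control cultures reached saturation at 30 °C; 1 = growth at the plate median or of vehicle wells; lower values mean less growth of the strain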
EXPERIMENTAL_CONDITIONS: S. cerevisiae deletion strains, growth OD, locus YLR262C, strain YPT6 (second series)
Screen size: about 5,500 compounds; about 2,000 (36%) were called active. Roughly 18% stayed inconclusive and do not appear here. No stated cut-off is given here; in the data, active means normalized growth mostly below about 0.91 (no sharp cut-off); inconclusive means no clear call, values can overlap the other calls; inactive means mostly above about 0.92. This is one part of the list.
Outcome codes: yes (1) = active, no (0) = inactive

# MOLECULE, CLASSIFICATION
records = [
    ("CCn1cc(C(=O)O)c(=O)c2cc3c(cc21)OCO3", "no (0)"),
    ("O=C1OCCN1/N=C\\c1ccc([N+](=O)[O-])o1", "no (0)"),
    ("COc1cc(/C=C/C(=O)O)cc(OC)c1OC", "no (0)"),
    ("CC1(C)C2CC(=O)O[C@@]3(C)C4=CC(=O)O[C@@H](c5ccoc5)[C@]4(C)CCC3[C@@]2(C)C=C[C@H]1O (stereo partly specified)", "no (0)"),
    ("Cc1cccc(CN2CCN(C(c3ccccc3)c3ccc(Cl)cc3)CC2)c1 (stereo unspecified)", "no (0)"),
    ("C#C[C@]1(O)CCC2C3CCc4cc(OC)ccc4C3CC[C@@]21C (stereo partly specified)", "yes (1)"),
    ("O=C(O)CCC(=O)c1ccc(-c2ccccc2)cc1", "yes (1)"),
    ("CC(=O)OCC(=O)[C@@]12OC(C)(C)O[C@@H]1CC1C3C[C@H](F)C4=CC(=O)C=C[C@]4(C)[C@@]3(F)[C@@H](O)C[C@@]12C (stereo partly specified)", "no (0)"),
    ("CCCCC(CC)CN=C(N)NC(N)=NCCCCCCN=C(N)NC(N)=NCC(CC)CCCC (stereo unspecified)", "yes (1)"),
    ("CC(=O)O[C@H]1CC[C@@]2(C)C(=CCC3C2CC[C@]2(C)C(=O)CCC32)C1 (stereo partly specified)", "yes (1)"),
    ("COS(C)(=O)=O", "no (0)"),
    ("NC(=O)c1ccc(N)nc1", "no (0)"),
    ("S=c1[nH]c2ccccc2s1", "yes (1)"),
    ("COc1ccc(/C=C/C(=O)c2cc(O)ccc2O)cc1", "yes (1)"),
    ("CCN(CC)CCOC(=O)C(Cc1cccc2ccccc12)CC1CCCO1 (stereo unspecified)", "no (0)"),
    ("CC(=O)O[C@H]1C[C@@H](OC(C)=O)C(C)(C)C2C[C@@H](OC(C)=O)[C@]3(C)C(CC[C@@]4(C)[C@H](c5ccoc5)C(=O)[C@H]5O[C@]543)[C@]21C (stereo partly specified)", "no (0)"),
]
